- System: 349418-098-R tumor spheroid viability
- Experiment: Anticancer human tumor 349418-098-R patient-derived lung adenocarcinoma cell line growth inhibition
- Assay setup: second compound 3.16 µM; first compound 3.16 µM; hits give low values; spheroids with HUVEC and MSC
# MET = viability, T/C below 90% (exclusive); NOT MET = viability, T/C at/above 90%

Asked: Please state whether viability, T/C is below 90% for COc1cc(C)[nH]c(=O)c1CN1CCc2c(Cl)cc(C(OC)C3COC3)c(Cl)c2C1=O (stereo unspecified) + Cn1nnc2c(C(N)=O)ncn2c1=O
Given back: MET

###

- Tested on: 349418-098-R tumor spheroid viability
- Experiment: Anticancer human tumor 349418-098-R cell line growth inhibition;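 also: spheroids exposed to compound for 7 days before measurement; percent of vehicle control viability with 100% = DMSO-treated spheroids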
- Assay setup: second compound 0.3 µM; first compound 0.3 µM; hits give low values; spheroids with HUVEC and MSC
Reported viability, T/C values for a set of compounds
Answer in %, number only, no unit symbol.

Compound	Measure name	Result
Cn1ncnc1[C@H]1c2n[nH]c(=O)c3cc(F)cc(c23)N[C@@H]1c1ccc(F)cc1 + CC[C@@]1(O)C(=O)OCc2c1cc1n(c2=O)Cc2cc3c(CN(C)C)c(O)ccc3nc2-1	viability, T/C	3.26

Entry O=C(c1cc(Cc2n[nH]c(=O)c3ccccc23)ccc1F)N1CCN(C(=O)C2CC2)CC1 + CC[C@@]1(O)C(=O)OCc2c1cc1n(c2=O)Cc2cc3c(CN(C)C)c(O)ccc3nc2-1 ; viability, T/C = 3.79

Entry Cc1sc2c(c1C)C(c1ccc(Cl)cc1)=NC(CC(=O)Nc1ccc(O)cc1)c1nnc(C)n1-2 (centres undefined) + CC[C@@]1(O)C(=O)OCc2c1cc1n(c2=O)Cc2cc3c(CN(C)C)c(O)ccc3nc2-1 ; viability, T/C = 0.63

Entry CNCc1ccc(-c2cc(-c3nc(-c4ccc(S(=O)(=O)C(C)C)cc4)cnc3N)on2)cc1 + CC[C@@]1(O)C(=O)OCc2c1cc1n(c2=O)Cc2cc3c(CN(C)C)c(O)ccc3nc2-1 ; viability, T/C = 3.02

Just for reference, PubChem BioAssay AID1845197 is where these values come from.
